Attribute: phage binding ELISA signal
# experimental.target: T1, PSMA Fab
# T1 construct: Biotinylated and captured on neutravidin coated plates in the phage ELISA; also called 006 PSMA Fab; Anti-PSMA Fab
# protocol.description: phage ELISA; biotinylated PSMA Fab on neutravidin plate, clonal phage supernatant, anti-M13 HRP; no PSMA antigen
Where no end group is shown, it is not given here.
Give your answer as a number; write no unit.

Would you please look over these solved cases?
binder	phage binding ELISA signal
LWMSCIPPWMCANV (cysteine pairing not given here; also: displayed as fusion to phage pIII, Peptide-180 library clone, tested as clonal phage (peptide fused to pIII)) [Phage-2426]	1.33
WTNTCIPMWMCEGF (Peptide-180 library clone, tested as clonal phage (peptide fused to pIII)) [Phage-2422]	1.33

Consider the record given below.
Kindly note the recorded phage binding ELISA signal for EVKWCIPNWMCAAS (cysteine pairing not given here; also: displayed as fusion to phage pIII, Peptide-180 library clone, tested as clonal phage (peptide fused to pIII)) [Phage-2432] , which is 1.32
